Tested on: Streptococcus pyogenes
method-notes: microbe, parasite or virus in culture
Please provide measured MIC for the entries that follow.

Exercise: Fill blank: measured MIC of the molecule O=C(Nc1nnc(C2CC2)o1)NC12CC3CC(CC(C3)C1)C2 is ____.
Solution: > 200 µg/mL

Exercise: Fill blank: measured MIC of the molecule CCCn1nc(NC(=O)NC23CC4CC(CC(C4)C2)C3)cc1C is ____.
Solution: > 200 µg/mL

Exercise: Fill blank: measured MIC of the molecule CCn1ccc(NC(=O)NC23CC4CC(CC(C4)C2)C3)n1 is ____.
Solution: 0.78 µg/mL

Exercise: Fill blank: measured MIC of the molecule O=C(Nc1ncco1)NC1C2CC3CC(C2)CC1C3 (stereo unspecified) is ____.
Solution: > 200 µg/mL

Exercise: Fill blank: measured MIC of the molecule O=C(Nc1nnc(C2CCC2)o1)NC12CC3CC(CC(C3)C1)C2 is ____.
Solution: 100 µg/mL

Exercise: Fill blank: measured MIC of the molecule Cc1nc(NS(=O)(=O)c2ccc(NC(=O)NC34CC5CC(CC(C5)C3)C4)cc2)oc1C is ____.
Solution: > 200 µg/mL
